- measurement_protocol: Selectivity index, ratio of CC50 for Huh5-2 cells to EC50 for HCV genotype 1b infected in Huh5-2 cells
- Design: species or system Huh-5-2
measurement_kind: Ratio CC50/EC50

The reported value for Oc1ccc(-c2cccc(-c3c(-c4ccc(F)cc4)nc4ccccn34)c2)cc1 in terms of Ratio CC50/EC50 is 5.1

Lab note: COc1ccccc1-c1nc2ccc(-c3ccsc3)nn2c1-c1cccc(-c2ccoc2)c1 gave Ratio CC50/EC50 of 1.4

Kindly note the recorded Ratio CC50/EC50 for Fc1ccc(-c2nc3ccc(-c4ccccc4)cn3c2-c2ccc(-c3ccccc3)cc2)cc1 , which is 2.5

Reported Ratio CC50/EC50 for c1ccc(-c2cccc(-c3c(-c4ccsc4)nc4ccc(-c5ccsc5)cn34)c2)cc1 was >1.8

For COc1ccccc1-c1nc2ccc(-c3ccsc3)nn2c1-c1cccc(-c2ccc(O)cc2)c1 the compound record lists Ratio CC50/EC50 as 9.2

For reference, reported Ratio CC50/EC50 for Fc1ccc(-c2nc3ccc(-c4ccsc4)nn3c2-c2ccc(-c3ccccc3)cc2)cc1 stands at >1

The recorded Ratio CC50/EC50 for CC(C)(C)c1nc2ccc(-c3ccsc3)nn2c1-c1cccc(-c2ccccc2O)c1 is 2.5

Consider Fc1ccc(-c2nc3ccccn3c2-c2cccc(-c3ccccc3)c2)cc1 . Its measured Ratio CC50/EC50 is 1.7

The recorded Ratio CC50/EC50 for entry Fc1ccc(-c2nc3ccc(N4CCOCC4)nn3c2-c2ccccc2-c2ccccc2)cc1 equals 1

###

- measurement_protocol: Cytotoxicity against human Huh5-2 cells assessed as growth inhibition after 3 days by MTS assay
- Type: cell-based, Huh-5-2
Give CC50 at 72 h for every item shown.
Quick note: give the figure in µg/mL, leave out the unit.

Item: Fc1ccc(-c2nc3ccc(N4CCOCC4)nn3c2-c2ccccc2-c2ccccc2)cc1 | CC50 at 72 h: 11.1

Noted for Fc1ccc(-c2nc3ccccn3c2-c2cccc(-c3ccc(Cl)cc3)c2)cc1 : its CC50 at 72 h reads 57.5

// COc1ccccc1-c1nc2ccccn2c1-c1cccc(-c2cccc(O)c2)c1 : CC50 at 72 h value = 40.3

Recorded CC50 at 72 h (molecule COc1ccccc1-c1nc2ccc(-c3ccsc3)nn2c1-c1cccc(-c2ccco2)c1 ): 54.3

Quick note, CC50 at 72 h for Fc1ccc(-c2nc3ccccn3c2-c2cccc(-c3ccsc3)c2)cc1 landed at 56.7

Looking up Fc1ccc(-c2nc3ccc(-c4ccccc4)nn3c2-c2cccc(-c3ccccc3)c2)cc1 , I found its CC50 at 72 h recorded as 15.9

Looking up CC(C)(C)c1nc2ccc(-c3ccsc3)nn2c1-c1cccc(-c2ccccc2)c1 , I see its CC50 at 72 h listed as 63.2

Consider Fc1ccc(-c2nc3ccc(N4CCOCC4)nn3c2-c2ccc(-c3ccccc3)cc2)cc1 . Its measured CC50 at 72 h is 33.3

CC50 at 72 h reported for this molecule COc1ccccc1-c1nc2ccccn2c1-c1cccc(-c2ccccc2O)c1 : 95.8

Lab book: CC50 at 72 h of CC(C)(C)c1nc2ccc(-c3ccsc3)nn2c1-c1cccc(-c2ccoc2)c1 noted as 55.1

Entry COc1ccc(-c2cccc(-c3c(-c4ccc(F)cc4)nc4ccccn34)c2)cc1 — recorded CC50 at 72 h = 34.8

Entry Fc1ccc(-c2nc3ccccn3c2-c2cccc(-c3ccncc3)c2)cc1 , CC50 at 72 h reported as 45.5

Record COc1ccccc1-c1nc2ccc(-c3ccsc3)nn2c1-c1cccc(-c2cccc(O)c2)c1 . Reported CC50 at 72 h: 78.5

COc1ccccc1-c1nc2ccccn2c1-c1cccc(-c2ccc(O)cc2)c1 has a reported CC50 at 72 h of 43.8

The molecule listed as CC(C)(C)c1nc2ccc(-c3ccsc3)nn2c1-c1cccc(-c2ccc(O)cc2)c1 has a reported CC50 at 72 h of 15

Looking up Fc1ccc(-c2nc3ccc(-c4ccsc4)nn3c2-c2cccc(-c3ccccc3)c2)cc1 , I found its CC50 at 72 h recorded as 13.4

Record COc1ccccc1-c1nc2ccc(-c3ccsc3)nn2c1-c1cccc(-c2ccoc2)c1 . Reported CC50 at 72 h: 15.7

Memo: CC(C)(C)c1nc2ccc(-c3ccsc3)nn2c1-c1cccc(-c2cccc(O)c2)c1 , reported CC50 at 72 h: 20
